- Target system: Bcr/Abl fusion protein (Homo sapiens, UniProt P00519)
- Protocol notes: Inhibition of wild type BCR/ABL (unknown origin) measured after 60 mins in presence of ATP by ADP-Glo kinase assay
Reported property: IC50 (nM)
# output: bare number, implied unit nM

Exercise: Can you share its IC50? I mean this compound: `Nc1n[nH]c2cc(-c3ccc(C(=O)NCCNC(=O)c4ccc(Cl)c(C(F)(F)F)c4)cc3)ccc12`
Solution: 43

Exercise: For `CN(C)c1ccc(C(=O)N2CCN(C(=O)c3ccc(-c4cccc5[nH]nc(N)c45)cc3)CC2)cc1` then?
Solution: 4280

Exercise: For `Cc1ccc(C(=O)N2CCN(C(=O)c3ccc(-c4ccc5c(N)n[nH]c5c4)cc3)CC2)cc1` then?
Solution: 32200

Exercise: For `Nc1n[nH]c2cccc(-c3ccc(C(=O)NCCNC(=O)c4ccc(F)cc4)cc3)c12` then?
Solution: 1350

Exercise: For `Nc1n[nH]c2cccc(-c3ccc(C(=O)N4CCN(C(=O)c5ccc(Cl)c(C(F)(F)F)c5)CC4)cc3)c12` then?
Solution: 10700

Exercise: For `Nc1n[nH]c2cc(-c3ccc(C(=O)N4CCN(C(=O)c5ccc(Cl)c(C(F)(F)F)c5)CC4)cc3)ccc12` then?
Solution: 1990

Exercise: For `Nc1n[nH]c2cc(-c3ccc(C(=O)NCCNC(=O)c4ccc(F)cc4)cc3)ccc12` then?
Solution: 2450

Exercise: For `Nc1n[nH]c2cc(-c3ccc(C(=O)N4CCN(C(=O)c5ccc(F)cc5)CC4)cc3)ccc12` then?
Solution: 2340

###

- Target system: Bcr/Abl fusion protein (Homo sapiens, UniProt P00519, T315I)
- Protocol notes: Inhibition of BCR/ABL T315I mutant (unknown origin) measured after 60 mins in presence of ATP by ADP-Glo kinase assay
Reported property: pIC50
A value of pIC50 is the negative decimal logarithm of a concentration given in moles per litre.

Exercise: Can you share its pIC50? I mean this compound: `Nc1n[nH]c2cccc(-c3ccc(C(=O)NCCNC(=O)c4ccc(Cl)c(C(F)(F)F)c4)cc3)c12`
Solution: 4.70

Exercise: For `Nc1n[nH]c2cccc(-c3ccc(C(=O)NCCNC(=O)c4ccc(F)cc4)cc3)c12` then?
Solution: 4.41

Exercise: For `Nc1n[nH]c2cc(-c3ccc(C(=O)NCCNC(=O)c4ccc(Br)cc4)cc3)ccc12` then?
Solution: 5.57

Exercise: For `CN(C)c1ccc(C(=O)NCCNC(=O)c2ccc(-c3cccc4[nH]nc(N)c34)cc2)cc1` then?
Solution: 4.11

Exercise: For `CN(C)c1ccc(C(=O)NCCNC(=O)c2ccc(-c3ccc4c(N)n[nH]c4c3)cc2)cc1` then?
Solution: 6.54

Exercise: For `Nc1n[nH]c2cc(-c3ccc(C(=O)NCCNC(=O)c4ccc(Cl)c(C(F)(F)F)c4)cc3)ccc12` then?
Solution: 6.77

Exercise: For `CN(C)c1ccc(C(=O)N2CCN(C(=O)c3ccc(-c4cccc5[nH]nc(N)c45)cc3)CC2)cc1` then?
Solution: 4.07

Exercise: For `CN(C)c1ccc(C(=O)N2CCN(C(=O)c3ccc(-c4ccc5c(N)n[nH]c5c4)cc3)CC2)cc1` then?
Solution: 5.21

Exercise: For `Nc1n[nH]c2cc(-c3ccc(C(=O)N4CCN(C(=O)c5ccc(Br)cc5)CC4)cc3)ccc12` then?
Solution: 4.50

Exercise: For `Cc1ccc(C(=O)N2CCN(C(=O)c3ccc(-c4cccc5[nH]nc(N)c45)cc3)CC2)cc1` then?
Solution: 3.75

Exercise: For `Nc1n[nH]c2cccc(-c3ccc(C(=O)N4CCN(C(=O)c5ccc(F)cc5)CC4)cc3)c12` then?
Solution: 4.68

Exercise: For `Nc1n[nH]c2cc(-c3ccc(C(=O)N4CCN(C(=O)c5ccc(F)cc5)CC4)cc3)ccc12` then?
Solution: 5.07

Exercise: For `Nc1n[nH]c2cc(-c3ccc(C(=O)NCCNC(=O)c4ccc(F)cc4)cc3)ccc12` then?
Solution: 4.21

Exercise: For `Nc1n[nH]c2cccc(-c3ccc(C(=O)N4CCN(C(=O)c5ccc(Cl)c(C(F)(F)F)c5)CC4)cc3)c12` then?
Solution: 5.68

###

- Target system: Tyrosine-protein kinase HCK (Homo sapiens, UniProt P08631)
- Sequence (P08631 whole entry, the tested form may be a part): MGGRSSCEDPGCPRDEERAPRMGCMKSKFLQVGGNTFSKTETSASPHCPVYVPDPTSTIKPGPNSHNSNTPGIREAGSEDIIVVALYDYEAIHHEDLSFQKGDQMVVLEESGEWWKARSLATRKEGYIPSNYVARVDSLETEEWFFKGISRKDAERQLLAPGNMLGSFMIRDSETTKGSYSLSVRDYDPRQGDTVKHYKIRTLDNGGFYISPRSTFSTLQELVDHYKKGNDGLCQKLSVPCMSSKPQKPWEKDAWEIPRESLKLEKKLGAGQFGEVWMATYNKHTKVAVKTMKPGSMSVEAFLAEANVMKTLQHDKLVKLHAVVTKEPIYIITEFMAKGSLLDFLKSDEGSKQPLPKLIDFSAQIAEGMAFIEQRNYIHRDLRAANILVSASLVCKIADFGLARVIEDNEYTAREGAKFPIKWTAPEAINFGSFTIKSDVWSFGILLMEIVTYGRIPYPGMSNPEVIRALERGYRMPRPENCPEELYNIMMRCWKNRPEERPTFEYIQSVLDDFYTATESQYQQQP
- Protocol notes: Inhibition of human recombinant N-terminal GST tagged HCK (230 to 497 residues) expressed in baculovirus infected Sf9 cells using poly (Glu,Tyr) 4:1 as substrate measured after 60 mins in presence of ATP by ADP-Glo kinase assay
pIC50: −log10 of the molar value.
Reported property: pIC50

Exercise: Can you share its pIC50? I mean this molecule: `Nc1n[nH]c2cc(-c3ccc(C(=O)NCCNC(=O)c4ccc(Cl)c(C(F)(F)F)c4)cc3)ccc12`
Solution: < 4.00

###

- Target system: Bcr/Abl fusion protein (Homo sapiens, UniProt P00519, T315I)
- Protocol notes: Inhibition of BCR/ABL T315I mutant (unknown origin) measured after 60 mins in presence of ATP by ADP-Glo kinase assay
I'd appreciate it if you could supply pIC50 values for the items below.
A value of pIC50 is the negative decimal logarithm of a concentration given in moles per litre.

Exercise: Can you share its pIC50? I mean this molecule: `Nc1n[nH]c2cc(-c3ccc(C(=O)N4CCN(C(=O)c5ccc(Cl)c(C(F)(F)F)c5)CC4)cc3)ccc12`
Solution: 5.27

Exercise: For `Cc1ccc(C(=O)NCCNC(=O)c2ccc(-c3ccc4c(N)n[nH]c4c3)cc2)cc1` then?
Solution: 5.37

Exercise: For `Nc1n[nH]c2cccc(-c3ccc(C(=O)N4CCN(C(=O)c5ccc(Br)cc5)CC4)cc3)c12` then?
Solution: 5.82

Exercise: For `Nc1n[nH]c2cccc(-c3ccc(C(=O)NCCNC(=O)c4ccc(Br)cc4)cc3)c12` then?
Solution: 4.02

Exercise: For `Cc1ccc(C(=O)N2CCN(C(=O)c3ccc(-c4ccc5c(N)n[nH]c5c4)cc3)CC2)cc1` then?
Solution: 5.43

###

- Target system: Bcr/Abl fusion protein (Homo sapiens, UniProt P00519)
- Protocol notes: Inhibition of wild type BCR/ABL (unknown origin) measured after 60 mins in presence of ATP by ADP-Glo kinase assay
Hi! Just check whether IC50 is below 6 µM. Below gives 1, equal or above gives 0.

Exercise: Find out if reported IC50 for `Nc1n[nH]c2cccc(-c3ccc(C(=O)N4CCN(C(=O)c5ccc(F)cc5)CC4)cc3)c12` is less than 6 µM
Solution: 0

Exercise: For `CN(C)c1ccc(C(=O)N2CCN(C(=O)c3ccc(-c4ccc5c(N)n[nH]c5c4)cc3)CC2)cc1` then?
Solution: 1

Exercise: For `Nc1n[nH]c2cc(-c3ccc(C(=O)NCCNC(=O)c4ccc(Br)cc4)cc3)ccc12` then?
Solution: 1

Exercise: For `Cc1ccc(C(=O)NCCNC(=O)c2ccc(-c3ccc4c(N)n[nH]c4c3)cc2)cc1` then?
Solution: 1

Exercise: For `CN(C)c1ccc(C(=O)NCCNC(=O)c2ccc(-c3ccc4c(N)n[nH]c4c3)cc2)cc1` then?
Solution: 1

Exercise: For `CN(C)c1ccc(C(=O)NCCNC(=O)c2ccc(-c3cccc4[nH]nc(N)c34)cc2)cc1` then?
Solution: 1

Exercise: For `Nc1n[nH]c2cccc(-c3ccc(C(=O)NCCNC(=O)c4ccc(Br)cc4)cc3)c12` then?
Solution: 0

Exercise: For `Nc1n[nH]c2cc(-c3ccc(C(=O)N4CCN(C(=O)c5ccc(Br)cc5)CC4)cc3)ccc12` then?
Solution: 0

Exercise: For `Nc1n[nH]c2cccc(-c3ccc(C(=O)NCCNC(=O)c4ccc(Cl)c(C(F)(F)F)c4)cc3)c12` then?
Solution: 1

Exercise: For `Nc1n[nH]c2cccc(-c3ccc(C(=O)N4CCN(C(=O)c5ccc(Br)cc5)CC4)cc3)c12` then?
Solution: 0
